Target: Alpha-1A adrenergic receptor (Homo sapiens) (UniProt P35348)
Sequence (P35348 whole entry): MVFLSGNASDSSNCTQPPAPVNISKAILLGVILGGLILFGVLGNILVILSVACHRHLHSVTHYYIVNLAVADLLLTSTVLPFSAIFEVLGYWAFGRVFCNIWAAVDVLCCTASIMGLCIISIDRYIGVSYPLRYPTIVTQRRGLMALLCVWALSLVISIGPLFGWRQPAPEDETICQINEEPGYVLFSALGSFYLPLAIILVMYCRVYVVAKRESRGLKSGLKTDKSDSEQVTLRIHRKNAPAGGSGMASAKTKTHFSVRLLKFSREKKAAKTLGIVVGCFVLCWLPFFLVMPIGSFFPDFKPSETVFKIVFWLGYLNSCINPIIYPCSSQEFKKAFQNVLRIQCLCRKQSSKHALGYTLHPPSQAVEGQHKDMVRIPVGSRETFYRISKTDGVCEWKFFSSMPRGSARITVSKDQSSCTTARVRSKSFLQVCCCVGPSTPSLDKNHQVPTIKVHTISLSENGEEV
Test: Ability to activate cloned human alpha-1A receptor expressed in rat-1 fibroblasts via calcium mobilization through Gq coupled PLC pathway expressed as percent of phenylephrine (40 uM) response
Format: functional
Observable: Max (%)

>>> print(df.to_string())
                     line_notation  observable  result
0   c1ccc(-c2ccns2)c(OCC2=NCCN2)c1         Max      99
1    c1ccc(-c2ccccc2NCC2=NCCN2)cc1         Max     101
2    c1cncc(-c2ccccc2OCC2=NCCN2)c1         Max     109
3   c1ccc(-c2nccs2)c(OCC2=NCCN2)c1         Max     102
4     c1coc(-c2ccccc2OCC2=NCCN2)c1         Max     106
5    Cc1csc(-c2ccccc2OCC2=NCCN2)n1         Max     104
6  c1ccc(-c2cnccn2)c(OCC2=NCCN2)c1         Max      97

* * *

Molecular target: Alpha-1B adrenergic receptor (Homo sapiens, UniProt P35368)
Sequence (P35368 whole entry): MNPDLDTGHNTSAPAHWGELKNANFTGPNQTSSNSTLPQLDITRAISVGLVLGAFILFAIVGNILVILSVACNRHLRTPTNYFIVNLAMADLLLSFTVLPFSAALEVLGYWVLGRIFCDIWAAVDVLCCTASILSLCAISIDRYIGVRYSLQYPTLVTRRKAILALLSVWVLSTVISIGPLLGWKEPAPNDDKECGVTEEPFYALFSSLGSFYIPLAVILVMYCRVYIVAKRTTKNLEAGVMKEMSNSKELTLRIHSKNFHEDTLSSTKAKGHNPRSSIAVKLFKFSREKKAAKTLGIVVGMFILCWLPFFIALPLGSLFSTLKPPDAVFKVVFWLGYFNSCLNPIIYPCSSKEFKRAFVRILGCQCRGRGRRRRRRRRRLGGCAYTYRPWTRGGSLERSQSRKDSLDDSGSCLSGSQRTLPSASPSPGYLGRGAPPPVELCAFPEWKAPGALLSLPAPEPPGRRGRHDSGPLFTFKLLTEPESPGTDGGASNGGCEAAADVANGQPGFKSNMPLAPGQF
Assay: Activation of recombinant human adrenergic, alpha-1B receptor expressed in rat-1 fibroblasts determined via calcium mobilization through Gq coupled PLC pathway
pEC50: −log10 of the molar value.
Listed next: entries and their corresponding pEC50.

c1ccc(-c2ccccc2OCC2=NCCN2)cc1 has a reported pEC50 of < 4.00

Form field pEC50, entry Cc1cccc(-c2ccccc2OCC2=NCCN2)n1 : < 4.00

Looking up c1ccc(-c2ccccc2NCC2=NCCN2)cc1 , I see its pEC50 listed as < 4.00

Per the records, this compound ( c1cncc(-c2ccccc2OCC2=NCCN2)c1 ) has pEC50 equal to 7.10

# compound Cc1ccc(-c2ccccc2OCC2=NCCN2)s1 ; its pEC50 = < 4.00

What the record says about Cc1ccnc(-c2ccccc2OCC2=NCCN2)c1 : pEC50 is < 4.00

Form: compound = c1ccc(-c2ccns2)c(OCC2=NCCN2)c1 ; pEC50 = 7.90

* * *

Measured pEC50, listed per entry.
Target: Alpha-1D adrenergic receptor (Homo sapiens)
Sequence (P25100 whole entry): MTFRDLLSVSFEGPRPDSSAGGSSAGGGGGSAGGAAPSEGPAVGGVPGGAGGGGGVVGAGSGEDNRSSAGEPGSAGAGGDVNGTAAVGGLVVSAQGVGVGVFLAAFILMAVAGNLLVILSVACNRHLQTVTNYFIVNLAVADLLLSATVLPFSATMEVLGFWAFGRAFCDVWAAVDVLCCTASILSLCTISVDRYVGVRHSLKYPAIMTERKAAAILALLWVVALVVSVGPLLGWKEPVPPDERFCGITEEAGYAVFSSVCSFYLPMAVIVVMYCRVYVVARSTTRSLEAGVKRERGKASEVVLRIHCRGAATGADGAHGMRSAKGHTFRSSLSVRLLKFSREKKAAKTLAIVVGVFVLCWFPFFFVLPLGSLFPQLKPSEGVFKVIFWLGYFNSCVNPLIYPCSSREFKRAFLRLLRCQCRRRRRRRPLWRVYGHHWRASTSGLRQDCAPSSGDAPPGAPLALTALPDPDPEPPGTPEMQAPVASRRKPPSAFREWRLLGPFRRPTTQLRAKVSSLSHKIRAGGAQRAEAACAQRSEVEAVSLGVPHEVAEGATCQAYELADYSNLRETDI
Test: Activation of recombinant human adrenergic, alpha-1D receptor expressed in rat-1 fibroblasts assayed via calcium mobilization through Gq coupled PLC pathway
pEC50: −log10 of the molar value.

Worked examples, 4 molecules total:
>>> df
                    line_notation  result
0     Cc1ccoc1-c1ccccc1OCC1=NCCN1  < 4.00
1  Cc1cccc(-c2ccccc2OCC2=NCCN2)n1  < 4.00
2  c1ccc(-c2nccs2)c(OCC2=NCCN2)c1    7.50
3   c1ccc(-c2ccccc2OCC2=NCCN2)cc1  < 4.00

The reported pEC50 of the molecule Cc1cc(-c2ccccc2OCC2=NCCN2)sn1 was < 4.00

* * *

Biological target: Alpha-1D adrenergic receptor (Homo sapiens)
Experiment: Activation of recombinant human adrenergic, alpha-1D receptor expressed in rat-1 fibroblasts assayed via calcium mobilization through Gq coupled PLC pathway
Assay type: functional
Observable: EC50

# count of solved cases: 2
>>> df
                   line_notation  observable    result
0    Cn1nccc1-c1ccccc1OCC1=NCCN1        EC50  > 100 µM
1  Cc1csc(-c2ccccc2OCC2=NCCN2)n1        EC50  > 100 µM

From here, focus on the item given below.
// recorded EC50 for c1ccc(-c2cnccn2)c(OCC2=NCCN2)c1 : > 100 µM
